Numbers sourced from paper PMC9904277.

measured on: MCL-1 (Homo sapiens, UniProt Q07820)
Sequence (Q07820 whole entry): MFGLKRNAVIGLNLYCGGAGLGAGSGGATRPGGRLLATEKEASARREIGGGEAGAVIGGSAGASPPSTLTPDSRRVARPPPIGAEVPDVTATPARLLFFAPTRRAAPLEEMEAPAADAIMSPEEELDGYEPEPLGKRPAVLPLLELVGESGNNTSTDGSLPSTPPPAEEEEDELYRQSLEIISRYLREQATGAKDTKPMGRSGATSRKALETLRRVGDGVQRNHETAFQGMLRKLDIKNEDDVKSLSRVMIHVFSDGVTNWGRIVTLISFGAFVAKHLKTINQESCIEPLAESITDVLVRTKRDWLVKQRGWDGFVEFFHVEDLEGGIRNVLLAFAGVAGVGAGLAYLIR
assay notes: competition fluorescence anisotropy
experimental readout: IC50 (nM)

INSERT INTO measurements (binder, qualifier_symbol, experimental_value) VALUES
  ('NLWAAQRYGRELRRMSDEFVDSFKK [BAD-wt BH3]', '>', 50000),
  ('SAAQLTAARLKALGDELHQRTMW [HRK-wt 28-50]', '=', 2700);
